Species: Sus scrofa
Experiment: Inhibition of porcine heart MDH using oxaloacetic acid as substrate assessed as enzyme recovery by measuring residual activity at approximately IC90 preincubated for 5 mins in presence of triton X-0.01% followed by substrate and […] addition and measured for 80 sec by absorbance based analysis relative to control
Details: time 380.0 sec
Provide the recorded Activity for the entries that follow.
Give bare numbers, in %.

Solved entries (count: 4):
COMPOUND STRING | UNIT LABEL | MEASURED VALUE
O=c1cc(-c2ccc(O)c(O)c2)oc2cc(O)cc(O)c12 | % | 89
CC(C)=CCc1c(O)ccc(C(=O)/C=C/c2ccc(O)cc2)c1O | % | 109
CCCCCc1cc(O)c(C/C=C(\C)CCC=C(C)C)c(O)c1C(=O)O | % | 95.7
C=C(C)[C@@H]1CCC(C)=C[C@H]1c1c(O)cc(CCCCC)c(C(=O)O)c1O | % | 81.3

So, C=C[C@@](C)(/C=C/c1ccc(O)cc1)CCC=C(C)C ? Its Activity was 111

----------
Provide the recorded log10 of IC50 for the entries that follow.
Assay: Inhibition of porcine heart MDH using oxaloacetic acid as substrate preincubated for 5 mins followed by substrate and […] addition and measured for 80 sec by absorbance based analysis
Set-up: species or system Sus scrofa
Recall that a logarithmic scale is used here: each number is log10 of IC50 in µM.

Solved entries (count: 4):
COMPOUND | ASSAY METRIC | MEASURED VALUE
CC1(C)Cc2c(-c3ccccc3)c(-c3ccc(Cl)cc3)c(CC(=O)O)n2C1 [LICOFELONE] | log10 of IC50 | 1.36
Cc1cc(O)c2c(c1)C(=O)c1cc(O)cc(O)c1C2=O [EMODIN] | log10 of IC50 | 1.59
Cc1cc(O)c2c(=O)c3c(O)cc(O)c4c5c(O)cc(O)c6c(=O)c7c(O)cc(C)c8c1c2c(c34)c(c78)c65 [HYPERICIN] | log10 of IC50 | -0.52
C=C(C)[C@@H]1CCC(C)=C[C@H]1c1c(O)cc(CCCCC)c(C(=O)O)c1O [CANNABIDIOLIC ACID] | log10 of IC50 | 1.67

Okay, here is my list. What is log10 of IC50 for each of these?
1. C[C@]12CC[C@@H]3c4ccc(OC(=O)c5ccccc5)cc4CC[C@H]3[C@@H]1CC[C@@H]2O [ESTRADIOL BENZOATE]
2. COc1cc(/C=C/C(=O)CC(=O)/C=C/c2ccc(O)c(OC)c2)ccc1O [CURCUMIN]
3. CC(C)C(=O)OCC(=O)[C@@]12O[C@H](C3CCCCC3)O[C@@H]1C[C@H]1[C@@H]3CCC4=CC(=O)C=C[C@]4(C)[C@H]3[C@@H](O)C[C@@]12C [CICLESONIDE]

1.94
1.15
1.00

----------
Species on record: Sus scrofa
Test: Inhibition of porcine heart MDH using oxaloacetic acid as substrate assessed as enzyme recovery by measuring residual activity at approximately IC90 preincubated for 5 mins in presence of 10 mg/ml BSA followed by enzyme addition and measured after 5 mins by absorbance based analysis relative to control
Details: time 10.0 min
Given measured Activity, output Y if it is greater than or equal to 90% and N if not.

Worked set:
MOLECULE | ASSIGNED CATEGORY
CC(C)=CCc1c(O)ccc(C(=O)/C=C/c2ccc(O)cc2)c1O | Y
Oc1ccc(-c2[o+]c3cc(O)cc(O)c3cc2O)cc1.[Cl-] [PELARGONIDIN CHLORIDE] | Y

Would you say Cc1cc(O)c2c(=O)c3c(O)cc(O)c4c5c(O)cc(O)c6c(=O)c7c(O)cc(C)c8c1c2c(c34)c(c78)c65 shows Activity at minimum 90%?
Y

Would you say CCOC(=O)c1c(CSc2ccccc2)n(C)c2cc(Br)c(O)c(CN(C)C)c12 shows Activity at minimum 90%?
N

Would you say CC(C)C(=O)OCC(=O)[C@@]12O[C@H](C3CCCCC3)O[C@@H]1C[C@H]1[C@@H]3CCC4=CC(=O)C=C[C@]4(C)[C@H]3[C@@H](O)C[C@@]12C [CICLESONIDE] shows Activity at minimum 90%?
N

----------
Provide the recorded Activity for the entries that follow.
Species: Sus scrofa
Experiment: Inhibition of porcine heart MDH using oxaloacetic acid as substrate assessed as enzyme recovery by measuring residual activity at approximately IC90 preincubated for 5 mins in presence of 10 mg/ml BSA followed by enzyme addition and measured after 5 mins by absorbance based analysis relative to control
Conditions: time 10.0 min
Give bare numbers, in %.

COMPOUND | Activity (%)
COc1cc(/C=C/C(=O)CC(=O)/C=C/c2ccc(O)c(OC)c2)ccc1O | 124
C=C[C@@](C)(/C=C/c1ccc(O)cc1)CCC=C(C)C | 77
CCCCCc1cc(O)c(C/C=C(\C)CCC=C(C)C)c(O)c1C(=O)O | 68

Here is another compound to look at.
So, C[C@]12CC[C@@H]3c4ccc(OC(=O)c5ccccc5)cc4CC[C@H]3[C@@H]1CC[C@@H]2O [ESTRADIOL BENZOATE] ? Its Activity was 62

----------
Assay: Aggregation property of compound in DMEM media assessed as critical aggregation concentration by DLS assay
Type: physicochemical
Provide the recorded CAC for the entries that follow.

Okay, here is my list. What is CAC for each of these?
1. COc1cc(/C=C/C(=O)CC(=O)/C=C/c2ccc(O)c(OC)c2)ccc1O [CURCUMIN]
2. CC(C)=CCc1c(O)ccc(C(=O)/C=C/c2ccc(O)cc2)c1O [ISOBAVACHALCONE]
3. C[C@]12CC[C@@H]3c4ccc(OC(=O)c5ccccc5)cc4CC[C@H]3[C@@H]1CC[C@@H]2O [ESTRADIOL BENZOATE]
4. CC(C)C(=O)OCC(=O)[C@@]12O[C@H](C3CCCCC3)O[C@@H]1C[C@H]1[C@@H]3CCC4=CC(=O)C=C[C@]4(C)[C@H]3[C@@H](O)C[C@@]12C [CICLESONIDE]
5. CCCCCc1cc(O)c(C/C=C(\C)CCC=C(C)C)c(O)c1C(=O)O [CANNABIGEROLIC ACID]
6. O=c1cc(-c2ccc(O)c(-c3c(O)cc(O)c4c(=O)cc(-c5ccc(O)cc5)oc34)c2)oc2cc(O)cc(O)c12 [AMENTOFLAVONE]
7. O=C(OC[C@H]1O[C@@H](OC(=O)c2cc(O)c(O)c(O)c2)[C@H](OC(=O)c2cc(O)c(O)c(O)c2)[C@@H](OC(=O)c2cc(O)c(O)c(O)c2)[C@@H]1O)c1cc(O)c(O)c(O)c1

["12 µM", "63 µM", "1.8 µM", "4.2 µM", "162 µM", "100 µM", "9.8 µM"]

src = ChEMBL document CHEMBL5512692
